Biological target: HA-1 “H” peptide (…) presented by HLA-A*02:01 on antigen presenting cells (human)
Experiment: cell-based or functional assay
quantity-kind: EC50 values for CD69 Expression (ng/mL)
The reply should contain only the number, in ng/mL.

Name the reported EC50 values for CD69 Expression value associated with the binder TCR AF (TCR, V domains shown) V domain 1: AQSVAQPEDQVNVAEGNPLTVKCTYSVSGNPYLFWYVQYPNRGLQFLLKYITGDNLVKGSYGFEAEFNKSQTSFHLKKPSALVSDSALYFCAVRSPTSGTYKYIFGTGTRLKVLA V domain 2: DTGVSQDPRHKITKRGQNVTFRCDPISEHNRLYWYRQTLGQGPEFLTYFQNEAQLEKSRLLSDRFSAERPKGSFSTLEIQRTEQGDSAMYLCASSLVSGNEQFFGPGTRLTVLE
2.49

Just for reference, patent US20240270813A1 is where these values come from.
